Target: human VDR (Homo sapiens, UniProt P11473)
Construct: expressed in transfected cells; host or cells: HOS cells (human osteoblast, ATCC)
Sequence (P11473 whole entry): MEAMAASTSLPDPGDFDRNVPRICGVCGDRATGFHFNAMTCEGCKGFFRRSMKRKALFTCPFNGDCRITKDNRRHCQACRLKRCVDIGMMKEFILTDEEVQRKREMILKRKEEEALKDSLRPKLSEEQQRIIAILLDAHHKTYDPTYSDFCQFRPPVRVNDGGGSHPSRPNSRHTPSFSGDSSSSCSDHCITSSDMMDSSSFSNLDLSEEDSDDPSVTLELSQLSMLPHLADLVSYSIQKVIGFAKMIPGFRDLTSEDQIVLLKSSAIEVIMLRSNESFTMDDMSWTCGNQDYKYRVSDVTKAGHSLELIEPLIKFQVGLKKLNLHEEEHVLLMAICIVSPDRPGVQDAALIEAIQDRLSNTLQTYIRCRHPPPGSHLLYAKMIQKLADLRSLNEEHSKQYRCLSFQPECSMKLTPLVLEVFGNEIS
Sequence (P19793 whole entry partner): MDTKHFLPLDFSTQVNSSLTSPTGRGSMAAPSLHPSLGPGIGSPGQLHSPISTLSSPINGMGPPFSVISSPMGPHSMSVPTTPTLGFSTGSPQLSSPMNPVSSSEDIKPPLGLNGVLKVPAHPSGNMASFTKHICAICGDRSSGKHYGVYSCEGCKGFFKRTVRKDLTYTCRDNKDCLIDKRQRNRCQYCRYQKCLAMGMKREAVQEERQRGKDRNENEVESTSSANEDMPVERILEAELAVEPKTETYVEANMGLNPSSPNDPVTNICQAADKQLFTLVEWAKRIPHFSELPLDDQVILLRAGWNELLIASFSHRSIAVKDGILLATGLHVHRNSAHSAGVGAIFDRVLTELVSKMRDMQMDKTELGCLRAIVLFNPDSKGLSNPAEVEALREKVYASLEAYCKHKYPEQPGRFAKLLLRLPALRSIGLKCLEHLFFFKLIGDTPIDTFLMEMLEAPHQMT
Experiment: VDR transcriptional activity in human osteoblast (HOS cells), osteocalcin promoter luciferase reporter
Assay type: cell-based
Conditions: 24 hours incubation
Excerpt: (1) A reporter vector was constructed by inserting the sequence of the promoter region of human ostocalcin gene into the upstream of luciferase gene using a pGL3 vector (Promega Corporation), wherein the promoter region of the human ostocalcin gene was cloned using cDNA acquired from HOS cells (purchased from ATCC) by a method known in the literature (Ozono et al., The Journal of Biological Chemistry, 265, 21881-21888 (1990)). […]
pEC50: −log10 of the molar value.

{"molecule": "C=C1C(=CC=C2CCCC3(C)C2CCC3C(C)CC#CC(C)(C)O)CC(O)C(OCCC(=O)OC)C1O (stereo not drawn)", "system.name": "human VDR (Homo sapiens, UniProt P11473)", "pEC50": "≥ 9.70"}
{"molecule": "C=C1C(=CC=C2CCCC3(C)C2CCC3C(C)CC#CC(C)(C)O)CC(O)C(OCCC(=O)O)C1O (stereo not drawn)", "system.name": "human VDR (Homo sapiens, UniProt P11473)", "pEC50": "≥ 9.70"}
{"molecule": "C=C1C(=CC=C2CCCC3(C)C2CCC3C(C)CC#CC(O)(CC)CC)CC(O)C(OCCC(=O)O)C1O (stereo not drawn)", "system.name": "human VDR (Homo sapiens, UniProt P11473)", "pEC50": "≥ 10.70"}
{"molecule": "C=C1/C(=C\\C=C2/CCC[C@@]3(C)C2CC[C@@H]3[C@H](C)CC#CC(C)(C)O)C[C@@H](O)[C@H](OCC2(C(=O)O)CC2)[C@@H]1O (stereo partly drawn)", "system.name": "human VDR (Homo sapiens, UniProt P11473)", "pEC50": "≥ 9.70"}
{"molecule": "C=C1C(=CC=C2CCCC3(C)C2CCC3C(C)CC#CC2(O)CCCC2)CC(O)C(OCCC(=O)O)C1O (stereo not drawn)", "system.name": "human VDR (Homo sapiens, UniProt P11473)", "pEC50": "≥ 10.70"}
{"molecule": "C=C1C(=CC=C2CCCC3(C)C2CCC3C(C)CC#CC(C)(C)O)CC(O)C(CCCC(=O)O)C1O (stereo not drawn)", "system.name": "human VDR (Homo sapiens, UniProt P11473)", "pEC50": "≥ 10.70"}
